- Test system: Escherichia coli
- protocol summary: In vitro dissociation constant of compound required for inhibition of Escherichia coli translation was determined
- Type: functional, organism-based
Could you please report measured IC50 for the items listed next?

query: Consider the molecule shown here: CN(C)CCCOc1ccc(C(NC(=O)c2ccc(-c3cccc(NC(=O)CCCN(C)C)c3)o2)C(=O)N2CCNCC2)cc1 (stereo not drawn) What is its recorded IC50?
result: > 100 µM

query: Which IC50 value belongs to CC(=O)Nc1cccc(-c2ccc(C(=O)NC(C(=O)N3CCNCC3)c3ccc(OCCCN(C)C)cc3)o2)c1 (stereo not drawn) ?
result: > 100 µM

query: Give the measured IC50 of "NCC[C@@H](NC(=O)c1ccc(-c2cccc(NC(=O)c3nncs3)c2)o1)C(=O)N1CCNCC1" .
result: > 100 µM

query: Could you share which IC50 value was measured for "NCC[C@@H](NC(=O)c1ccc(-c2cccc(NC(=O)c3cnccn3)c2)o1)C(=O)N1CCNCC1" ?
result: > 100 µM

query: Any idea what IC50 was measured for "NCC[C@@H](NC(=O)c1ccc(-c2cccc(NC(=O)c3ccccn3)c2)o1)C(=O)N1CCNCC1" ?
result: > 100 µM

query: Which measured IC50 value corresponds to CN(C)CCCOc1ccc(C(NC(=O)c2ccc(-c3cccc(NC(=O)c4ccc(Cl)c(Cl)c4)c3)o2)C(=O)N2CCNCC2)cc1 (stereo not drawn) ?
result: 4 µM

query: Any idea what IC50 was measured for "NCC[C@@H](NC(=O)c1ccc(-c2cccc(NS(=O)(=O)c3ccc4nc(O)c(O)nc4c3)c2)o1)C(=O)N1CCNCC1" ?
result: > 100 µM

query: Given the molecule CN(C)CCCOc1ccc(C(NC(=O)c2ccc(-c3cccc(NC(=O)c4ccc5nc(O)c(O)nc5c4)c3)o2)C(=O)N2CCNCC2)cc1 (stereo not drawn) , what is its reported IC50?
result: 3 µM

---

- Test system: Escherichia coli
- protocol summary: In vitro dissociation constant of compound required for inhibition of Escherichia coli translation by 50% was determined
- Assay type: functional
result type: Kd (µM)
Write down the numeric answer in µM and omit the unit.

query: Request the reported Kd associated with "NCC[C@@H](NC(=O)c1ccc(-c2cccc(NC(=O)c3ccc4nc(O)c(O)nc4c3)c2)o1)C(=O)N1CCNCC1"
result: 6.5

---

- Tested on: Escherichia coli
- protocol summary: In vitro dissociation constant of compound required for inhibition of Escherichia coli translation was determined
- Assay type: functional, organism-based
result type: IC50

query: // fetch Escherichia coli IC50 for CN(C)CCCOc1ccc(C(NC(=O)c2ccc(-c3cccc(NC(=O)c4ccc5ncccc5c4)c3)o2)C(=O)N2CCNCC2)cc1 (centres undefined)
result: 6 µM

query: Value wanted: IC50 (Escherichia coli) of entry "CN(C)CCCC(=O)Nc1cccc(-c2ccc(C(=O)N[C@H](CCN)C(=O)N3CCNCC3)o2)c1"
result: > 100 µM

query: Kindly state the measured IC50 obtained for CN(C)CCCOc1ccc(C(NC(=O)c2ccc(-c3cccc(NC(=O)c4cnc5ccccc5c4)c3)o2)C(=O)N2CCNCC2)cc1 (centres undefined) with Escherichia coli.
result: 5 µM

query: Can you look up IC50 on Escherichia coli for CN(C)CCCOc1ccc(C(NC(=O)c2ccc(-c3cccc(NC(=O)c4ccccn4)c3)o2)C(=O)N2CCNCC2)cc1 (centres undefined) ?
result: 20 µM
